- System: Ubiquitin carboxyl-terminal hydrolase 2 (Homo sapiens) (UniProt O75604)
- Sequence (O75604 whole entry, looked up): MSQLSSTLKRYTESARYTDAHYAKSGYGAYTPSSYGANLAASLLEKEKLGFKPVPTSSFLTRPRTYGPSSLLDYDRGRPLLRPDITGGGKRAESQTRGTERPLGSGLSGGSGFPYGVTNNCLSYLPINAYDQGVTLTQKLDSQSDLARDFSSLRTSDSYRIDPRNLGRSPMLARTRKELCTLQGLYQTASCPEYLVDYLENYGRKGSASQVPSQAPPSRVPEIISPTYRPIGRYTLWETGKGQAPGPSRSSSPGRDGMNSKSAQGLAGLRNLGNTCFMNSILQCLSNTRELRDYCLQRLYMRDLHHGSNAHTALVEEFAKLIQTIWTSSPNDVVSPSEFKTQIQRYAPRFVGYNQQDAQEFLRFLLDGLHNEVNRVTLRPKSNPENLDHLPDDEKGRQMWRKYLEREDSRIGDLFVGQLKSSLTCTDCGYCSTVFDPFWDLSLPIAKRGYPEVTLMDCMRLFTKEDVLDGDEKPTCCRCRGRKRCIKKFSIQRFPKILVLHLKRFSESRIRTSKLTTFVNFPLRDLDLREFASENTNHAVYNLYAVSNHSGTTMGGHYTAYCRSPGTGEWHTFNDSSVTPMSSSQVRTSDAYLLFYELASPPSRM
- Procedure text: Confirmation Concentration-response Assay for Inhibitors of Ubiquitin-specific Protease USP2a
- Conditions: USP2 core, Ub-PLA2 coupled fluorescence, NBD C6-HPC; series mostly up to 38.3 µM
Records with an inconclusive call do not appear. Calls of active or inactive are those of the source. Calls follow the shape of the dose curve; as a rule, active = well fitted inhibition curve with a large enough effect; inconclusive = small, poorly fitted or top-dose-only effect; inactive = no such curve, though single readings can be large or run the other way.
Measure name: Potency

Solved entries (count: 6):
Sample `Cc1ccc([C@H]2Nc3ccc(S(=O)(=O)Nc4cccc(Cl)c4C)cc3[C@H]3C=CC[C@H]32)cc1` ; Potency observed: 7.94 µM (active)

Sample `COC(=O)c1c(NC(=O)CS(=O)(=O)c2ccc(C)cc2)sc2c1CCCCC2` ; Potency observed: inactive

Sample COc1ccc(C(=O)/C=C/c2cn(CC(O)CN(CC(C)C)CC(C)C)c3ccccc23)cc1OC (configuration not stated) ; Potency observed: 12.6 µM (active)

Sample `O=C(CCS(=O)(=O)c1ccccc1)N(Cc1cccnc1)c1nc2c(Cl)cccc2s1` ; Potency observed: inactive

Sample `Cc1ccc(-n2nc3c(=O)n(CCCC(=O)NCCc4ccccc4Cl)nc(C)c3c2C)cc1` ; Potency observed: 11.2 µM (active)

Sample Oc1c(C(Nc2ccccn2)c2ccccc2F)ccc2cccnc12 (configuration not stated) ; Potency observed: inactive

Attention now shifts to the item below.
Sample CCCCCC(=O)N1c2ccccc2C(C)(c2ccccc2)CC1(C)C (configuration not stated) ; Potency observed: 12.6 µM (active)
